Kindly state pIC50 for each of the entries shown.
Target: ULK1 (Homo sapiens)
Sequence (O75385 1-649 limits assumed): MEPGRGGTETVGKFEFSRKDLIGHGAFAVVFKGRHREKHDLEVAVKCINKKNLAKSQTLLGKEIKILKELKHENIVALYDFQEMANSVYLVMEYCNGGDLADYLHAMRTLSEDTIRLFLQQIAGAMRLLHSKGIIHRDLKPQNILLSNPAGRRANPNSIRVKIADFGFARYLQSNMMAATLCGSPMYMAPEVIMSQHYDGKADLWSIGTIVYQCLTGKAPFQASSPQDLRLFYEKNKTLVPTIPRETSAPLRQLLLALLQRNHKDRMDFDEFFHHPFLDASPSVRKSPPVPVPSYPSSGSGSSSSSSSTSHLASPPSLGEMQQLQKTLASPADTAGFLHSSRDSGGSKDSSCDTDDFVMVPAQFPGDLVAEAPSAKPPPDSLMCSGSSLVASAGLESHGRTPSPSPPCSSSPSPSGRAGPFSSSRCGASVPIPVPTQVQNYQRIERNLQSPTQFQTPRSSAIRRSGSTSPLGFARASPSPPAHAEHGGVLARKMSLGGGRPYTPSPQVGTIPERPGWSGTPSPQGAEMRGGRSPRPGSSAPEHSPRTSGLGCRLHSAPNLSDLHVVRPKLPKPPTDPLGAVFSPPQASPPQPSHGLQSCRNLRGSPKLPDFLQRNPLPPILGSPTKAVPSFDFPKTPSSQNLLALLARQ
pIC50: −log10 of the molar value.

compound	pIC50
CN1CCN(c2ccc(Nc3ncc(C(F)(F)F)c(N4CC5(CCCN(C)C5)C4)n3)c(C3CC3)c2)CC1 [Example 50]	6.00 to 7.00
CN1CCN(c2ccc(Nc3ncc(C(F)(F)F)c(NC4CCN(C(=O)C5CCC5)CC4)n3)c(C3CC3)c2)CC1 [Example 20]	> 7.00
CN1CCC(COc2ccc(Nc3ncc(C(F)(F)F)c(OCCCN4CCCCC4=O)n3)c(C3CC3)c2)CC1 [Example 34]	6.00 to 7.00

Data request, read-out pIC50, for CN1CCN(c2ccc(Nc3ncc(C(F)(F)F)c(N4CC5(CCN(C)C5)C4)n3)c(C3CC3)c2)CC1 [Example 25] > 7.00

* * *

pIC50: −log10 of the molar value.
pIC50, ULK1 (Homo sapiens): measured values

Study these solved cases before continuing.
compound	assay.value
CN1CCN(c2ccc(Nc3ncc(C(F)(F)F)c(N4CCC5(CCN(C)C5)C4)n3)c(C3CC3)c2)CC1 (stereo not shown)	> 7.00
CN1CCN(c2ccc(Nc3ncc(C(F)(F)F)c(NC(=O)C4CCC4)n3)c(C3CC3)c2)CC1	6.00 to 7.00
CN1CCN(c2nc(Nc3cccc(Nc4ccc(N)cc4)c3)ncc2C(F)(F)F)CC1=O	6.00 to 7.00
CN1CCN(c2ccc(Nc3ncc(C(F)(F)F)c(N4C5CCC4C(=O)N(C)C5)n3)c(C3CC3)c2)CC1 (stereo not shown)	> 7.00

Your task in this section: give pIC50 for each listed record.
1. CN1CCN(c2ccc(Nc3ncc(C(F)(F)F)c(N4CC5(CN(C)C5)C4)n3)c(C3CC3)c2)CC1
2. CN1CCN(c2ccc(Nc3ncc(C(F)(F)F)c(N4CCCN(C(=O)C5CCC5)CC4)n3)c(C3CC3)c2)CC1
3. CN1CCN(c2ccc(Nc3ncc(C(F)(F)F)c(N4CCC5(CC4)CN(C)C5)n3)c(C3CC3)c2)CC1

1. > 7.00
2. 6.00 to 7.00
3. < 6.00

* * *

Biological target: ULK1 (Homo sapiens)
Sequence (O75385 1-649 limits assumed): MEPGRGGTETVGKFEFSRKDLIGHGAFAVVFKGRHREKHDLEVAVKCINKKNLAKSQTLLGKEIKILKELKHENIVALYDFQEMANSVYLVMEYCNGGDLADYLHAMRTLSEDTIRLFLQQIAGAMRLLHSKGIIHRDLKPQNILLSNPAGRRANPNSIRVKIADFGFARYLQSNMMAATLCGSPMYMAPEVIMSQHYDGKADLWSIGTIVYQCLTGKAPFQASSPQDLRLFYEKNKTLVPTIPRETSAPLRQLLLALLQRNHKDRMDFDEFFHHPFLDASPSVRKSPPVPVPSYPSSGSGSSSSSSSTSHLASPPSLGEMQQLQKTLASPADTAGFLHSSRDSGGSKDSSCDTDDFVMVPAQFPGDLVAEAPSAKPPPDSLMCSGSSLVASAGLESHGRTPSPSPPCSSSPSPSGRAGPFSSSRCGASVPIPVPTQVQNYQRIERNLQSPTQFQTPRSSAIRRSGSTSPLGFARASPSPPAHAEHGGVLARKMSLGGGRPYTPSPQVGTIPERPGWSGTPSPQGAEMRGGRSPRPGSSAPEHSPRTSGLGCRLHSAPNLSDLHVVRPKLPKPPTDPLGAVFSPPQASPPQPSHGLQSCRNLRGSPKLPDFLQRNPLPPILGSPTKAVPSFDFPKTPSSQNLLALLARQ
result.type: IC50

Study these solved cases before continuing.
molecule	measurement.target	assay.value
CN1CCN(c2ccc(Nc3ncc(C(F)(F)F)c(N4CCC5(CCN(C)CC5)CC4)n3)c(C3CC3)c2)CC1 [Example 51]	ULK1 (Homo sapiens)	< 100 nM
CN1CCN(c2ccc(Nc3ncc(C(F)(F)F)c(CCN4CCCCC4=O)n3)c(C3CC3)c2)CC1 [Example 28]	ULK1 (Homo sapiens)	100 to 1000 nM
CN1CCN(c2ccc(Nc3ncc(C(F)(F)F)c(OCCCN4CCCCC4=O)n3)c(C3CC3)c2)CC1 [Example 1]	ULK1 (Homo sapiens)	< 100 nM

Your task in this section: give IC50 for each listed record.
1. CN1CCN(c2ccc(Nc3ncc(C(F)(F)F)c(NC4CCN(C)C(=O)C4)n3)c(C3CC3)c2)CC1 (centres unmarked) [Example 10]
2. CN1CCc2cc(Nc3ncc(C(F)(F)F)c(N4CCN(C)C(=O)C4)n3)ccc2C1 [Example 15]
3. CN1CCN(c2nc(Nc3cccc(NC(=O)N4CCCC4)c3)ncc2C(F)(F)F)CC1=O [Example 22]
4. CN1CCN(c2ccc(Nc3ncc(C(F)(F)F)c(COCCN4CCCCC4=O)n3)c(C3CC3)c2)CC1 [Example 42]
5. CN1CCN(c2ccc(Nc3ncc(C(F)(F)F)c(N4CCC(NC(=O)C5CCC5)CC4)n3)c(C3CC3)c2)CC1 [Example 4]

1: 100 to 1000 nM; 2: < 100 nM; 3: > 1000 nM; 4: > 1000 nM; 5: 100 to 1000 nM
